Cited source for all entries: paper PMC8050276

- experimental_target: hTRPML1∆NC-YFP (Homo sapiens, UniProt Q9GZU1)
- Sequence (Q9GZU1 whole entry): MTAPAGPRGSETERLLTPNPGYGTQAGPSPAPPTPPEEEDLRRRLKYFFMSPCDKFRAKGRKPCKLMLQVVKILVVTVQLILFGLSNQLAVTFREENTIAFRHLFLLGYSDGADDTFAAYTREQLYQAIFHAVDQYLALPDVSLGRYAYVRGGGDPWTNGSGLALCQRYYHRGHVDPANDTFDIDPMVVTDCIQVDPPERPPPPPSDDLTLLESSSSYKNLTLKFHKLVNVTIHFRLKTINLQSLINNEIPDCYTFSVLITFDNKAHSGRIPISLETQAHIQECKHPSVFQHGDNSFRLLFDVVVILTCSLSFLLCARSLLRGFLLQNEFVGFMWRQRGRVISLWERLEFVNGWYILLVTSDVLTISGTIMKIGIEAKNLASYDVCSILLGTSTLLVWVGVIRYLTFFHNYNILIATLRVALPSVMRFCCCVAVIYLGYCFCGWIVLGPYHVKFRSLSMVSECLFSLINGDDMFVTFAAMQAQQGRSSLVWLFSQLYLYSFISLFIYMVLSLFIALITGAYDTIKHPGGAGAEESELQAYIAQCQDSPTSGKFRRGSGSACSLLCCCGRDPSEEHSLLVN
- Type: cell-based
- setup_conditions: read-out: TRPML1 IC50; Fluo-4, 5 µM ML-SA1, Fig. 2a/4, Table S1
reported_endpoint: pIC50
# pIC50 is unitless: minus log10 of the molar concentration; print number only

Value of measured pIC50 for the entry C[C@]12CC[C@@H]3c4ccc(O)cc4CC[C@H]3[C@@H]1CC[C@@H]2O : 5.28

Value of measured pIC50 for the entry C[C@]12CC[C@@H]3c4ccc(OS(=O)(=O)C(F)(F)F)cc4CC[C@H]3[C@@H]1CC[C@@H]2O : 6.77

Value of measured pIC50 for the entry C[C@]12CC[C@@H]3c4ccc(-c5ccccc5)cc4CC[C@H]3[C@@H]1CC[C@@H]2O : 6.36

Value of measured pIC50 for the entry C[C@]12CC[C@@H]3c4ccc(OC(F)F)cc4CC[C@H]3[C@@H]1CC[C@@H]2O : 6.30

Value of measured pIC50 for the entry CCOc1ccc2c(c1)CC[C@@H]1[C@@H]2CC[C@]2(C)[C@@H](O)CC[C@@H]12 : 6.10

Value of measured pIC50 for the entry CC(=O)c1ccc2c(c1)CC[C@@H]1[C@@H]2CC[C@]2(C)[C@@H](O)CC[C@@H]12 : 6.55

Value of measured pIC50 for the entry CC(C)Oc1ccc2c(c1)CC[C@@H]1[C@@H]2CC[C@]2(C)[C@@H](O)CC[C@@H]12 : 6.39

Value of measured pIC50 for the entry C[C@]12CC[C@@H]3c4ccc(Oc5ccccc5)cc4CC[C@H]3[C@@H]1CC[C@@H]2O : 6.14

Value of measured pIC50 for the entry C=Cc1ccc2c(c1)CC[C@@H]1[C@@H]2CC[C@]2(C)[C@@H](O)CC[C@@H]12 : 6.39

Value of measured pIC50 for the entry C=CCOc1ccc2c(c1)CC[C@@H]1[C@@H]2CC[C@]2(C)[C@@H](O)CC[C@@H]12 : 6.14

====

Provide the recorded TRPML1:TRPML3 fold selectivity for the entries that follow.
- Tested on: hTRPML1∆NC-YFP
- Type: cell-based, human
- setup_conditions: ratio of Fluo-4 IC50 values
Only the number, expressed in fold, is required.

Value of measured TRPML1:TRPML3 fold selectivity for the entry C[C@]12CC[C@@H]3c4ccc(OS(=O)(=O)C(F)(F)F)cc4CC[C@H]3[C@@H]1CC[C@@H]2O : 35.06

Value of measured TRPML1:TRPML3 fold selectivity for the entry C=CCOc1ccc2c(c1)CC[C@@H]1[C@@H]2CC[C@]2(C)[C@@H](O)CC[C@@H]12 : 20.82

Value of measured TRPML1:TRPML3 fold selectivity for the entry C[C@]12CC[C@@H]3c4ccc(-c5ccccc5)cc4CC[C@H]3[C@@H]1CC[C@@H]2O : 72.98

Value of measured TRPML1:TRPML3 fold selectivity for the entry CCOc1ccc2c(c1)CC[C@@H]1[C@@H]2CC[C@]2(C)[C@@H](O)CC[C@@H]12 : 19.58

Value of measured TRPML1:TRPML3 fold selectivity for the entry C[C@]12CC[C@@H]3c4ccc(OC(F)F)cc4CC[C@H]3[C@@H]1CC[C@@H]2O : 9.37

Value of measured TRPML1:TRPML3 fold selectivity for the entry CC(=O)c1ccc2c(c1)CC[C@@H]1[C@@H]2CC[C@]2(C)[C@@H](O)CC[C@@H]12 : 50.29

Value of measured TRPML1:TRPML3 fold selectivity for the entry CC(C)Oc1ccc2c(c1)CC[C@@H]1[C@@H]2CC[C@]2(C)[C@@H](O)CC[C@@H]12 : 19.2

Value of measured TRPML1:TRPML3 fold selectivity for the entry COc1ccc2c(c1)CC[C@@H]1[C@@H]2CC[C@]2(C)[C@@H](O)CC[C@@H]12 : 30.47

Value of measured TRPML1:TRPML3 fold selectivity for the entry C=Cc1ccc2c(c1)CC[C@@H]1[C@@H]2CC[C@]2(C)[C@@H](O)CC[C@@H]12 : 38.61

Value of measured TRPML1:TRPML3 fold selectivity for the entry C[C@]12CC[C@@H]3c4ccc(Oc5ccccc5)cc4CC[C@H]3[C@@H]1CC[C@@H]2O : 53.68

====

- experimental_target: hTRPML1∆NC-YFP (Homo sapiens)
- Type: cell-based
- setup_conditions: read-out: TRPML1 IC50, concentration-response retest of screening hits and steroids; Fluo-4, 5 µM ML-SA1, Fig. 1b-e, S1
Provide the recorded pIC50 for the entries that follow.
# pIC50 is unitless: minus log10 of the molar concentration; print number only

Value of measured pIC50 for the entry COc1ccc2c(c1)CC[C@@H]1[C@@H]2CC[C@]2(C)[C@@H](O)CC[C@@H]12 : 6.30

Value of measured pIC50 for the entry CC(=O)[C@H]1CC[C@H]2[C@@H]3CCC4=CC(=O)CC[C@]4(C)[C@H]3CC[C@]12C [progesterone, reference compound] : 4.92

====

- experimental_target: hTRPML1L15/16A, L577/578A (Homo sapiens, UniProt Q9GZU1, L15A/L16A)
- Sequence (Q9GZU1 with tags, fused parts or gaps L15A/L16A): as the sequence (Q9GZU1 whole entry) above, with L15A, L16A, L577A, L578A counted along it
- experiment_summary: Whole-cell patch-clamp, tetracycline-inducible HEK293 hTRPML1L15/16A, L577/578A
- setup_conditions: 30 µM ML-SA1, pH 4.6; read-out: TRPML1 IC50, whole-cell patch-clamp
reported_endpoint: pIC50
# pIC50 is unitless: minus log10 of the molar concentration; print number only

Case COc1ccc2c(c1)CC[C@@H]1[C@@H]2CC[C@]2(C)[C@@H](O)CC[C@@H]12 [EDME, 17β-estradiol methyl ether] , hTRPML1L15/16A, L577/578A (Homo sapiens, UniProt Q9GZU1, L15A/L16A), pIC50 recorded as 6.66

====

- experimental_target: hTRPML3-YFP (Homo sapiens)
- Construct: expressed in transfected cells
- Sequence (Q8TDD5 whole entry): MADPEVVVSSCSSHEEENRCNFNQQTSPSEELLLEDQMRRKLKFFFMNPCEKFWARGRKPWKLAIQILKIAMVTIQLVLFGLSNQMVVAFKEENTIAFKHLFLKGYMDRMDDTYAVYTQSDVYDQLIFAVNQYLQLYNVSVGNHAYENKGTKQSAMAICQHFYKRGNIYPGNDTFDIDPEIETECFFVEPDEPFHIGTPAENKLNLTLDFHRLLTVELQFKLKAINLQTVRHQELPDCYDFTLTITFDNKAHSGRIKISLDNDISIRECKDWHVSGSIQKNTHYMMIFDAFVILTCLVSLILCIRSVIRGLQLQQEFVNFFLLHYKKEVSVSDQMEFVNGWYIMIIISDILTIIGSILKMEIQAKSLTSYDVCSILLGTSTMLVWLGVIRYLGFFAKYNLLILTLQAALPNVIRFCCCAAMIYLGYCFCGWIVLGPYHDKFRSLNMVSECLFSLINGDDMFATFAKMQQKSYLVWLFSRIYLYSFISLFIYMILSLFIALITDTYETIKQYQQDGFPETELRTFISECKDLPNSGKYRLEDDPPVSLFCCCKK
- experiment_summary: Fluo-4 Ca2+ influx assay, HEK293 stably expressing hTRPML3-YFP, activated with ML-SA1
- Assay type: cell-based
- setup_conditions: Fluo-4, 5 µM ML-SA1, Table S1; read-out: TRPML3 IC50
Provide the recorded pIC50 for the entries that follow.
# pIC50 is unitless: minus log10 of the molar concentration; print number only

Value of measured pIC50 for the entry C=CCOc1ccc2c(c1)CC[C@@H]1[C@@H]2CC[C@]2(C)[C@@H](O)CC[C@@H]12 [PRU-7] : 4.82

Value of measured pIC50 for the entry C[C@]12CC[C@@H]3c4ccc(Oc5ccccc5)cc4CC[C@H]3[C@@H]1CC[C@@H]2O [PRU-8] : 4.41

Value of measured pIC50 for the entry C[C@]12CC[C@@H]3c4ccc(OC(F)F)cc4CC[C@H]3[C@@H]1CC[C@@H]2O [PRU-4] : 5.32

Value of measured pIC50 for the entry CC(=O)c1ccc2c(c1)CC[C@@H]1[C@@H]2CC[C@]2(C)[C@@H](O)CC[C@@H]12 [PRU-12] : 4.85

Value of measured pIC50 for the entry C[C@]12CC[C@@H]3c4ccc(-c5ccccc5)cc4CC[C@H]3[C@@H]1CC[C@@H]2O [PRU-11] : 4.49

Value of measured pIC50 for the entry C[C@]12CC[C@@H]3c4ccc(OS(=O)(=O)C(F)(F)F)cc4CC[C@H]3[C@@H]1CC[C@@H]2O [PRU-9] : 5.22

Value of measured pIC50 for the entry C=Cc1ccc2c(c1)CC[C@@H]1[C@@H]2CC[C@]2(C)[C@@H](O)CC[C@@H]12 [PRU-10] : 4.80

Value of measured pIC50 for the entry CC(C)Oc1ccc2c(c1)CC[C@@H]1[C@@H]2CC[C@]2(C)[C@@H](O)CC[C@@H]12 [PRU-6] : 5.10

Value of measured pIC50 for the entry CCOc1ccc2c(c1)CC[C@@H]1[C@@H]2CC[C@]2(C)[C@@H](O)CC[C@@H]12 [PRU-5] : 4.83

====

- Tested on: hTRPML1∆NC-YFP
- Assay type: cell-based, human
- setup_conditions: Fluo-4, TRPML1 vs TRPML3, 5 µM ML-SA1

- molecule: "COc1ccc2c(c1)CC[C@@H]1[C@@H]2CC[C@]2(C)[C@@H](O)CC[C@@H]12 [EDME, 17β-estradiol methyl ether]"
  experimental_target: "hTRPML1∆NC-YFP"
  TRPML1 versus TRPML3 selectivity: "highly TRPML1-selective"
- molecule: "C=C1C[C@H]2[C@@H]3C=C(C)C4=CC(=O)CC[C@]4(C)[C@H]3CC[C@]2(C)[C@@]1(OC(C)=O)C(C)=O [MGA, melengestrol acetate, reference compound]"
  experimental_target: "hTRPML1∆NC-YFP"
  TRPML1 versus TRPML3 selectivity: "highly TRPML1-selective"

====

- experimental_target: hTRPML1∆NC-YFP (Homo sapiens, UniProt Q9GZU1)
- Assay type: cell-based
- setup_conditions: 12.5 µM compound, 5 µM ML-SA1, Fig. 1f

- compound: "COc1ccc2c(c1)CC[C@@H]1[C@@H]2CC[C@]2(C)C(=O)CC[C@@H]12 [estrone 3-methyl ether, reference compound]"
  inhibitory effect on TRPML1: "no effect"
- compound: "CC(C)CCC[C@@H](C)[C@H]1CC[C@H]2[C@@H]3CC=C4C[C@@H](O)CC[C@]4(C)[C@H]3CC[C@]12C [cholesterol, reference compound]"
  inhibitory effect on TRPML1: "no effect"
- compound: "C[C@]12CCC(=O)C=C1CC[C@@H]1[C@@H]2[C@@H](O)C[C@@]2(C)[C@H]1CC[C@]2(O)C(=O)CO [hydrocortisone, reference compound]"
  inhibitory effect on TRPML1: "no effect"
